// reported protein stability index per item
B1: ATL3 (parent)
chain: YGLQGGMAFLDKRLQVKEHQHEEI

- Variants of: B1
- EXPERIMENT_DESCRIPTION: protein stability index of a GFP-peptide fusion (GPS, HEK-293T) (PSI 1-6); higher = more stable;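 note: lentivirally expressed fusions sorted by FACS into six bins by GFP to DsRed ratio, PSI derived from sequencing read proportions per bin multiplied by bin number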
- SETUP_CONDITIONS: c terminus: a fixed tail appended
VALUE_TYPE: protein stability index

variant_spec=E23S value_type="protein stability index" observed_result=2.41
variant_spec=G5K value_type="protein stability index" observed_result=2.4
variant_spec=E22W value_type="protein stability index" observed_result=2.76
variant_spec=Y1A value_type="protein stability index" observed_result=4.57
variant_spec=K17V value_type="protein stability index" observed_result=2.42
variant_spec=K17E value_type="protein stability index" observed_result=2.56
variant_spec=G6N value_type="protein stability index" observed_result=2.32
variant_spec=V16T value_type="protein stability index" observed_result=2.3
variant_spec=K12C value_type="protein stability index" observed_result=1.49
variant_spec=L10Y value_type="protein stability index" observed_result=1.68
variant_spec=K12E value_type="protein stability index" observed_result=1.99
variant_spec=Q20D value_type="protein stability index" observed_result=3.09
variant_spec=E18V value_type="protein stability index" observed_result=1.9
variant_spec=M7D value_type="protein stability index" observed_result=2.16
variant_spec=K12N value_type="protein stability index" observed_result=2.91
variant_spec=G6V value_type="protein stability index" observed_result=2.03
variant_spec=E18N value_type="protein stability index" observed_result=2.32
variant_spec=Q20P value_type="protein stability index" observed_result=2
variant_spec=D11E value_type="protein stability index" observed_result=2.9
variant_spec=L14G value_type="protein stability index" observed_result=3.93
variant_spec=G5L value_type="protein stability index" observed_result=2.39
variant_spec=Q15G value_type="protein stability index" observed_result=2.69
variant_spec=D11C value_type="protein stability index" observed_result=2.94
variant_spec=L3G value_type="protein stability index" observed_result=2.46
variant_spec=L10E value_type="protein stability index" observed_result=3.82
variant_spec=A8R value_type="protein stability index" observed_result=1.74
variant_spec=M7F value_type="protein stability index" observed_result=3.3
variant_spec=G5E value_type="protein stability index" observed_result=3.15
variant_spec=Q4M value_type="protein stability index" observed_result=2.83
variant_spec=D11L value_type="protein stability index" observed_result=2.37
variant_spec=D11H value_type="protein stability index" observed_result=1.61
variant_spec=Q4N value_type="protein stability index" observed_result=3.07
variant_spec=Q15M value_type="protein stability index" observed_result=3.24
variant_spec=G6Y value_type="protein stability index" observed_result=2.34
variant_spec=L3Y value_type="protein stability index" observed_result=2.99
variant_spec=F9S value_type="protein stability index" observed_result=4.49
variant_spec=G2A value_type="protein stability index" observed_result=2.28
variant_spec=E22P value_type="protein stability index" observed_result=2.96
variant_spec=Q4L value_type="protein stability index" observed_result=1.75
variant_spec=F9T value_type="protein stability index" observed_result=4.58
variant_spec=G2I value_type="protein stability index" observed_result=1.66
variant_spec=E18R value_type="protein stability index" observed_result=2.19
variant_spec=E22D value_type="protein stability index" observed_result=2.48
variant_spec=L3P value_type="protein stability index" observed_result=2.55
variant_spec=D11G value_type="protein stability index" observed_result=2.76
variant_spec=R13P value_type="protein stability index" observed_result=1.93
variant_spec=H21V value_type="protein stability index" observed_result=2.1
variant_spec=I24P value_type="protein stability index" observed_result=2.81
variant_spec=K12A value_type="protein stability index" observed_result=1.93
variant_spec=L3W value_type="protein stability index" observed_result=3.64
variant_spec=H21D value_type="protein stability index" observed_result=2.11
variant_spec=L14M value_type="protein stability index" observed_result=2.07
variant_spec=E22F value_type="protein stability index" observed_result=2.03
variant_spec=M7I value_type="protein stability index" observed_result=2.28
variant_spec=D11V value_type="protein stability index" observed_result=2.84
variant_spec=H19C value_type="protein stability index" observed_result=2.31
variant_spec=Q4P value_type="protein stability index" observed_result=2.37
variant_spec=E18I value_type="protein stability index" observed_result=3.67
variant_spec=H19Y value_type="protein stability index" observed_result=2.76
variant_spec=Q15Y value_type="protein stability index" observed_result=2.44
variant_spec=H19E value_type="protein stability index" observed_result=2.81
variant_spec=K17W value_type="protein stability index" observed_result=2.2
variant_spec=F9W value_type="protein stability index" observed_result=2.26
variant_spec=L14P value_type="protein stability index" observed_result=3.04
variant_spec=L10K value_type="protein stability index" observed_result=1.62
variant_spec=E23D value_type="protein stability index" observed_result=3.04
variant_spec=R13D value_type="protein stability index" observed_result=1.52
variant_spec=R13T value_type="protein stability index" observed_result=2.28
variant_spec=F9Q value_type="protein stability index" observed_result=4.42
variant_spec=H21F value_type="protein stability index" observed_result=1.6
variant_spec=I24A value_type="protein stability index" observed_result=2.58
variant_spec=Q4H value_type="protein stability index" observed_result=3.46
variant_spec=L3H value_type="protein stability index" observed_result=2.81
variant_spec=Q20N value_type="protein stability index" observed_result=2.86
variant_spec=G2W value_type="protein stability index" observed_result=2.37
variant_spec=Q4D value_type="protein stability index" observed_result=2.18
variant_spec=L10T value_type="protein stability index" observed_result=2.35
variant_spec=V16K value_type="protein stability index" observed_result=2.84
variant_spec=I24R value_type="protein stability index" observed_result=2.26
variant_spec=V16Y value_type="protein stability index" observed_result=3.04
variant_spec=A8G value_type="protein stability index" observed_result=2.81
variant_spec=E22A value_type="protein stability index" observed_result=2.54
variant_spec=V16H value_type="protein stability index" observed_result=1.91
variant_spec=E23Y value_type="protein stability index" observed_result=2.76
variant_spec=E22M value_type="protein stability index" observed_result=2.24
variant_spec=I24Q value_type="protein stability index" observed_result=2.14

From: the supplement of paper PMC10567573
